# testMethodNotes: Oral bioavailability in overnight fasted Sprague-Dawley rat using spray-dried dispersion at 5 mg/kg
# Type: ADME, organism-based
# measurementSetup: in vivo
measuredParameter: bioavailability (%)
The reply should contain only the number, in %.

Input line: Need bioavailability, item "C=C(C)[C@@H]1CC[C@]2(NCCN3CCS(=O)(=O)CC3)CC[C@]3(C)[C@H](CC[C@@H]4[C@@]5(C)CC=C(C6=CC[C@@](CF)(C(=O)O)CC6)C(C)(C)[C@@H]5CC[C@]43C)[C@@H]12"
Output line: 40

###

# testMethodNotes: Metabolic stability in human liver microsomes assessed as half life in presence of NADPH at 0.5 uM by LC-MS/MS analysis
# Format: ADME, Microsome
measuredParameter: half-life at 0.5 µM

Input line: Need half-life at 0.5 µM, item "C=C(C)[C@@H]1CC[C@]2(NCCN3CCS(=O)(=O)CC3)CC[C@]3(C)[C@H](CC[C@@H]4[C@@]5(C)CC=C(C6=CC[C@@](CF)(C(=O)O)CC6)C(C)(C)[C@@H]5CC[C@]43C)[C@@H]12"
Output line: > 2 h

###

# testMethodNotes: AUC(0 to t) in overnight fasted mouse at 5 mg/kg, po or 1 mg/kg, iv
# Type: ADME, organism-based
# Set-up: dose 5 mg/kg, route po
# measurementSetup: in vivo
measuredParameter: AUC(0-t) (µM·h)
The reply should contain only the number, in µM·h.

structureString	measureUnit	AUC(0-t)
C=C(C)[C@@H]1CC[C@]2(NCCN3CCS(=O)(=O)CC3)CC[C@]3(C)[C@H](CC[C@@H]4[C@@]5(C)CC=C(C6=CC[C@@](CF)(C(=O)O)CC6)C(C)(C)[C@@H]5CC[C@]43C)[C@@H]12	µM·h	29.9

Now turn to the next compound.
Input line: Need AUC(0-t), item "C=C(C)[C@@H]1CC[C@]2(NCCN3CCS(=O)(=O)CC3)CC[C@]3(C)[C@H](CC[C@@H]4[C@@]5(C)CC=C(c6ccc(C(=O)O)cc6)C(C)(C)[C@@H]5CC[C@]43C)[C@@H]12"
Output line: 21.6

###

# testMethodNotes: Lipophilicity, log D of the compound at pH 6.5
# Format: physicochemical
# measurementSetup: buffer
measuredParameter: logD

Input line: Need logD, item "C=C(C)[C@@H]1CC[C@]2(NCCN3CCS(=O)(=O)CC3)CC[C@]3(C)[C@H](CC[C@@H]4[C@@]5(C)CC=C(C6=CC[C@@](CF)(C(=O)O)CC6)C(C)(C)[C@@H]5CC[C@]43C)[C@@H]12"
Output line: 4.9

###

# System: Human immunodeficiency virus 1
# testMethodNotes: Antiviral activity against HIV1 wild type NL (4 to 3) infected in human MT2 cells measured after 4 to 5 days in presence of human serum by dual-luciferase reporter assay
# Type: functional, organism-based
# measurementSetup: Human immunodeficiency virus 1, MT2
EC50 listing for selected molecules.

molecule	recordedResult
C=C(C)[C@@H]1CC[C@]2(NCCN3CCS(=O)(=O)CC3)CC[C@]3(C)[C@H](CC[C@@H]4[C@@]5(C)CC=C(C6=CCC(COCC)(C(=O)O)CC6)C(C)(C)[C@@H]5CC[C@]43C)[C@@H]12 (some centres undefined)	21.8 nM
C=C(C)[C@@H]1CC[C@]2(NCCN3CCS(=O)(=O)CC3)CC[C@]3(C)[C@H](CC[C@@H]4[C@@]5(C)CC=C(C6=CCC(CO)(C(=O)O)CC6)C(C)(C)[C@@H]5CC[C@]43C)[C@@H]12 (some centres undefined)	5.9 nM
C=C(C)[C@@H]1CC[C@]2(NCCN3CCS(=O)(=O)CC3)CC[C@]3(C)[C@H](CC[C@@H]4[C@@]5(C)CC=C(c6ccc(C(=O)O)cc6)C(C)(C)[C@@H]5CC[C@]43C)[C@@H]12 [BMS-955176]	10.2 nM

Now turn to the next molecule.
Input line: Request body: readout EC50, system Human immunodeficiency virus 1, query C=C(C)[C@@H]1CC[C@]2(NCCN3CCC(S(C)(=O)=O)CC3)CC[C@]3(C)[C@H](CC[C@@H]4[C@@]5(C)CC=C(C6=CCC(CO)(C(=O)O)CC6)C(C)(C)[C@@H]5CC[C@]43C)[C@@H]12 (some centres undefined) . Return the value.
Output line: 12.6 nM
